Where do these numbers come from? They come from patent US9133492B2.

Record form. Attribute: MIC. Fill in for each entry.
Test system: E. coli ATCC 25922(Kan^S)
PROTOCOL NOTES: microbe, parasite or virus in culture
Assay type: cell-based, Escherichia coli
COND: E. coli ATCC 25922, kanamycin-sensitive typical strain
Answers are plain numbers, in µg/mL.

# annotated cases, reported MIC shown
INSERT INTO results (compound, target_system, value) VALUES
  ('N[C@H]1[C@@H](O[C@H]2[C@H](O)[C@@H](O[C@H]3O[C@H](CO)[C@@H](O)[C@H](O)[C@H]3O)[C@H](N)C[C@@H]2N)O[C@H](CO)[C@@H](O)[C@@H]1O [Compound 5, 3″-deamino-3″-hydroxykanamycin C]', 'E. coli ATCC 25922(Kan^S)', 128),
  ('NCC1OC(OC2C(N)CC(N)C(O)C2O)C(O)C(O)C1O (stereo not drawn) [Compound 10, 2′-deamino-2′-hydroxyneamine]', 'E. coli ATCC 25922(Kan^S)', 64),
  ('NC[C@H]1O[C@H](O[C@H]2[C@H](O)[C@@H](O[C@H]3O[C@H](CO)[C@@H](O)[C@H](N)[C@H]3O)[C@H](N)C[C@@H]2N)[C@H](N)[C@@H](O)[C@@H]1O [Compound 7, kanamycin B, reference compound]', 'E. coli ATCC 25922(Kan^S)', 2),
  ('N[C@@H]1[C@@H](O)[C@@H](O[C@@H]2[C@@H](O)[C@H](O[C@H]3O[C@H](CO)[C@@H](O)[C@H](O)[C@H]3N)[C@@H](N)C[C@H]2N)O[C@H](CO)[C@H]1O', 'E. coli ATCC 25922(Kan^S)', 16),
  ('NC[C@@H]1O[C@@H](O[C@H]2[C@H](O)[C@@H](O[C@H]3O[C@H](CO)[C@@H](O)[C@H](N)[C@H]3O)[C@H](N)C[C@@H]2N)[C@@H](O)[C@H](O)[C@H]1O [Compound 8, kanamycin A, reference compound]', 'E. coli ATCC 25922(Kan^S)', 2);

Ask: Output measured MIC for this item: "N[C@@H]1[C@@H](O)[C@@H](O[C@@H]2[C@@H](O)[C@H](O[C@H]3O[C@H](CO)[C@@H](O)[C@H](O)[C@H]3O)[C@@H](N)C[C@H]2N)O[C@H](CO)[C@H]1O"
Reply: 16
